assay.details: Lethal dose after intravenous injection in rats
Format: in vivo, Ratten
settings: rat, in vivo, iv; all three doses pooled, i.v., Ratten; read-out: gestorbene Tiere, alle Dosierungen (%)
Kindly state mortality for each of the entries shown.
Report the figure in % without appending any unit label.

Request: Recall and state the measured mortality for C[C@H](O)C(=O)Nc1c(I)c(C(=O)NC(CO)CO)c(I)c(C(=O)NC(CO)CO)c1I [lopamidol] .
Response: 58

Request: Recall and state the measured mortality for CN(C(=O)CO)c1c(I)c(C(=O)NCC(O)CO)c(I)c(C(=O)NCC(O)CO)c1I (stereo not shown) [lomeprol] .
Response: 89

Request: Recall and state the measured mortality for CN(CC(O)CO)C(=O)c1c(I)c(NC(=O)CO)c(I)c(C(=O)NCC(O)CO)c1I (stereo not shown) [Beispiel 1] .
Response: 33

Request: Recall and state the measured mortality for COCC(=O)Nc1c(I)c(C(=O)NCC(O)CO)c(I)c(C(=O)N(C)CC(O)CO)c1I (stereo not shown) [lopromid] .
Response: 67

* * *

System: Ratten
assay.details: Lethal dose after intravenous injection in rats
Format: in vivo
settings: Dosis 3: 18 g J/kg, i.v., Ratten (90-110 g), 300 mg Jod/ml, 2 ml/min
endpoint.name: Zahl der gestorbenen Tiere / Gesamtzahl der Tiere

Request: Recall and state the measured Zahl der gestorbenen Tiere / Gesamtzahl der Tiere for CN(CC(O)CO)C(=O)c1c(I)c(NC(=O)CO)c(I)c(C(=O)NCC(O)CO)c1I (stereo not shown) .
Response: 2/4

Request: Recall and state the measured Zahl der gestorbenen Tiere / Gesamtzahl der Tiere for COCC(=O)Nc1c(I)c(C(=O)NCC(O)CO)c(I)c(C(=O)N(C)CC(O)CO)c1I (stereo not shown) .
Response: 4/4

Request: Recall and state the measured Zahl der gestorbenen Tiere / Gesamtzahl der Tiere for C[C@H](O)C(=O)Nc1c(I)c(C(=O)NC(CO)CO)c(I)c(C(=O)NC(CO)CO)c1I .
Response: 4/4

Request: Recall and state the measured Zahl der gestorbenen Tiere / Gesamtzahl der Tiere for CN(C(=O)CO)c1c(I)c(C(=O)NCC(O)CO)c(I)c(C(=O)NCC(O)CO)c1I (stereo not shown) .
Response: 3/3

* * *

assay.details: Butanol/water (buffer pH 7) partition coefficient
Assay type: physicochemical
settings: Butanol/Wasser (Puffer pH 7), n = 4, Mittelwert ± Standardabweichung
endpoint.name: Verteilungskoeffizient

Request: Recall and state the measured Verteilungskoeffizient for CN(C(=O)CO)c1c(I)c(C(=O)NCC(O)CO)c(I)c(C(=O)NCC(O)CO)c1I (centres unmarked) .
Response: 0.105 ± 0.006

Request: Recall and state the measured Verteilungskoeffizient for C[C@H](O)C(=O)Nc1c(I)c(C(=O)NC(CO)CO)c(I)c(C(=O)NC(CO)CO)c1I .
Response: 0.089 ± 0.014

Request: Recall and state the measured Verteilungskoeffizient for COCC(=O)Nc1c(I)c(C(=O)NCC(O)CO)c(I)c(C(=O)N(C)CC(O)CO)c1I (centres unmarked) .
Response: 0.149 ± 0.011

Request: Recall and state the measured Verteilungskoeffizient for CN(CC(O)CO)C(=O)c1c(I)c(NC(=O)CO)c(I)c(C(=O)NCC(O)CO)c1I (centres unmarked) .
Response: 0.069 ± 0.011

Request: Recall and state the measured Verteilungskoeffizient for CC(=O)N(CC(O)CO)c1c(I)c(C(=O)NCC(O)CO)c(I)c(C(=O)NCC(O)CO)c1I (centres unmarked) [lohexol] .
Response: 0.082 ± 0.005

// data source = patent EP0815072B1
